Source listed as patent US20140005163A1.

Reported IC50, mTOR (Homo sapiens, UniProt P42345).
QUANTITY_KIND: IC50 (nM)

[[record]]
smiles = "Cc1nn(C)cc1-n1c(=O)n(C)c2cnc3ccc(-c4cnn(CCO)c4)cc3c21"
measurement_unit = "nM"
value_reported = 672

[[record]]
smiles = "Cc1nn(C(C)C)cc1-n1c(=O)n(C)c2cnc3ccc(-c4ccc(N(C)C)nc4)cc3c21"
measurement_unit = "nM"
value_reported = 30


(I) CCOc1cc(-c2ccc3ncc4c(c3c2)n(-c2cn(C)nc2C)c(=O)n4C)cnc1CO
(II) COCCNC(=O)c1cc(-c2ccc3ncc4c(c3c2)n(-c2cn(C)nc2C)c(=O)n4C)cnc1N
Exercise: Please tell me which of the two, I or II , has the higher reported IC50 value. Refer to your chosen item by its label in the answer.
Key: II

---

EXPERIMENTAL_TARGET: PI3K delta (Homo sapiens, UniProt O00329)
Construct: for the full-length p110-d subunit are generated and fused by overlapping PCR; p85(iSH2) fusion partner (see partner chain) (N); His tag (C); Tn5 (Trichoplusia ni) or TiniPro insect cells
Sequence (O00329 with tags, fused parts or gaps limits assumed): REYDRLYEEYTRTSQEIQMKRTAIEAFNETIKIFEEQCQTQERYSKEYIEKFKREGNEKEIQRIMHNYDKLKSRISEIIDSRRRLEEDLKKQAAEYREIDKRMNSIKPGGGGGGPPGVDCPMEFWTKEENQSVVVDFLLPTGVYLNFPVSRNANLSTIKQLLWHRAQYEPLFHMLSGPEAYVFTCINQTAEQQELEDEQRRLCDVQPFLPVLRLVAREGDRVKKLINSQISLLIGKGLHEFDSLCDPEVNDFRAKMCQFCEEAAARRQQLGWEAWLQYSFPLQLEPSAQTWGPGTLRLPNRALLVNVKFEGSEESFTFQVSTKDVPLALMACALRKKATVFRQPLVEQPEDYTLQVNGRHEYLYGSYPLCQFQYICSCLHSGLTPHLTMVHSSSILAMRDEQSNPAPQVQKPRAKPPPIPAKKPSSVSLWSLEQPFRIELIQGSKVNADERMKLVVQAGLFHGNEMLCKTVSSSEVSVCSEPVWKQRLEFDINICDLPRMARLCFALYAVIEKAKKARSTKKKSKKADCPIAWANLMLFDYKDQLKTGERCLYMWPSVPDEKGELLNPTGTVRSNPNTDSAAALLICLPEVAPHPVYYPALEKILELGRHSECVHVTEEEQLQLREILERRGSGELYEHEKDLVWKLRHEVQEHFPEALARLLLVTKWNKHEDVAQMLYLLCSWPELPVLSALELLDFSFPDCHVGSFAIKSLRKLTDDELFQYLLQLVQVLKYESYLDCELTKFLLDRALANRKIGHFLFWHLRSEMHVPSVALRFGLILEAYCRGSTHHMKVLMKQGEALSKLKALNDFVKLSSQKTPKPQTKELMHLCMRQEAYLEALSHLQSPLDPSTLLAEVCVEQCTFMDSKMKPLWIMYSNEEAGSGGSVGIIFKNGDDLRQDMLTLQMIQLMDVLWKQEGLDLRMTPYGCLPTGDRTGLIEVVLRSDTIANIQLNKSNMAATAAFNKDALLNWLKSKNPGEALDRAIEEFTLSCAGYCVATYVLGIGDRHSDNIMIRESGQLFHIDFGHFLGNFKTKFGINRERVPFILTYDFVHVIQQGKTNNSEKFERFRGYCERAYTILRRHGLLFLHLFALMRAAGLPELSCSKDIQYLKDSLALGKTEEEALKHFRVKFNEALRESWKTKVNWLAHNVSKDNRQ
METHOD_DESCRIPTION: PI3K delta kinase assay (Kinase-Glo luminescence)
Description: In a more preferred assay, the kinase reaction is performed in a final volume of 10 μL per well of a low volume non binding CORNING, 384 well black plate (Cat. No. #3676). The final concentrations of ATP and phosphatidyl inositol (PI) in the assay are 1 μM and 10 μg/mL respectively. […] IC50 is determined by a four parameter curve fitting routine that comes along with “excel fit”. […] Alternatively, IC50 values are calculated using idbsXLfit model 204, which is a 4 parameter logistic model.
pIC50: −log10 of the molar value.
QUANTITY_KIND: pIC50

A selection of reference data follows.
[[record]]
smiles = "COc1ccc(-c2ccc3ncc4c(c3c2)n(-c2ccnn2C)c(=O)n4C)cn1"
quantity_kind = "pIC50"
value_reported = 7.25

[[record]]
smiles = "CCn1c(=O)n(-c2cn(C)nc2C)c2c3cc(-c4cncc(N)c4)ccc3ncc21"
quantity_kind = "pIC50"
value_reported = 7.52

[[record]]
smiles = "CCOc1cc(-c2ccc3ncc4c(c3c2)n(-c2cn(C(C)C)nc2C)c(=O)n4C)cnc1COC"
quantity_kind = "pIC50"
value_reported = 7.62

[[record]]
smiles = "[2H]C([2H])([2H])OCc1ncc(-c2ccc3ncc4c(c3c2)n(-c2cn(C)nc2Cl)c(=O)n4C)cc1OC"
quantity_kind = "pIC50"
value_reported = 8.30

[[record]]
smiles = "CCOc1ccc(-c2ccc3ncc4c(c3c2)n(-c2cn(CCO)nc2C)c(=O)n4C)cn1"
quantity_kind = "pIC50"
value_reported = 7.15


(a) CCN(CC)C(=O)Cn1cc(-n2c(=O)n(C)c3cnc4ccc(-c5cnc(N6CCCC6)nc5)cc4c32)c(C)n1
(b) CNc1cc(-c2ccc3ncc4c(c3c2)n(-c2cn(C)nc2C)c(=O)n4C)cnc1F
Exercise: Please tell me which of the two, a or b , has the higher reported pIC50 value. Refer to your chosen item by its label in the answer.
Key: b

---

Reported IC50, mTOR (Homo sapiens, UniProt P42345).
QUANTITY_KIND: IC50 (µM)

A selection of reference data follows.
[[record]]
smiles = "CNc1cc(-c2ccc3ncc4c(c3c2)n(-c2cn(C)nc2Cl)c(=O)n4C)cnc1CO"
value_reported = 0.012

[[record]]
smiles = "Cc1nn(C)cc1-n1c(=O)n(C)c2cnc3ccc(-c4ccc(CO)nc4)cc3c21"
value_reported = 0.023

[[record]]
smiles = "COCc1cncc(-c2ccc3ncc4c(c3c2)n(-c2cn(C)nc2C)c(=O)n4C)c1"
value_reported = 0.079

[[record]]
smiles = "CCn1cc(-n2c(=O)n(C)c3cnc4ccc(-c5ccc(NC)nc5)cc4c32)c(C)n1"
value_reported = 0.004


(I) Cc1nn(C)cc1-n1c(=O)n(C)c2cnc3ccc(-c4cccc(OC(C)C)c4F)cc3c21
(II) COc1cc(-c2ccc3ncc4c(c3c2)n(-c2cn(C)nc2C)c(=O)n4C)cnc1C
Exercise: Returns: the label, I or II , whose recorded IC50 is the lower number. Refer to your chosen item by its label in the answer.
Key: II

---

METHOD_DESCRIPTION: Solubility at pH 6.8
Assay type: physicochemical
CONDITION_SET: pH 6.8, aqueous buffer, thermodynamic from solid; read-out: solubility
QUANTITY_KIND: solubility (µg/mL)

[[record]]
molecule = "Cc1nn(C)cc1-n1c(=O)n(C)c2cnc3ccc(-c4cncc(N5CCC5)c4)cc3c21 [Example 179]"
quantity_kind = "solubility"
value_reported = 28

[[record]]
molecule = "CCOc1ccc(-c2ccc3ncc4c(c3c2)n(-c2c(C)nn(C)c2C)c(=O)n4C)cn1 [Example 3.3]"
quantity_kind = "solubility"
value_reported = 104

[[record]]
molecule = "CCn1c(=O)n(-c2cn(C)nc2C)c2c3nc(-c4ccc(OC)c(OC)c4)ccc3ncc21 [Example 251]"
quantity_kind = "solubility"
value_reported = 12


(1) Cc1nn(C)cc1-n1c(=O)n(C)c2cnc3ccc(-c4cnc5c(c4)ncn5C)cc3c21 [Example 74]
(2) Cc1nn(C)cc1-n1c(=O)n(C)c2cnc3ccc(-c4cnccn4)cc3c21 [Example 115]
(3) CCN(C)C(=O)Cn1cc(-n2c(=O)n(C)c3cnc4ccc(-c5cnc(N6CCCC6)nc5)cc4c32)c(C)n1 [Example 140.1]
(4) Cc1nn(C)cc1-n1c(=O)n(C)c2cnc3ccc(-c4cccc(N(C)S(C)(=O)=O)c4)cc3c21 [Example 117]
Exercise: // ranking: key=solubility, reverse=True Returns: the labels listed in the requested order.
Key: 2, 3, 1, 4

---

Tested on: PKB Ser473 phosphorylation in Rat1-myr-HA-p110 alpha cells
METHOD_DESCRIPTION: Reverse protein array assay, PKB Ser473 phosphorylation in Rat1-myr-p110 alpha cells
Assay type: cell-based
CONDITION_SET: 0.5 h, pAkt Ser473, 30 minutes compound incubation, read-out: p-PKB IC50
pIC50: −log10 of the molar value.
QUANTITY_KIND: pIC50

[[record]]
smiles = "CCNc1cc(-c2ccc3ncc4c(c3c2)n(-c2c(C)noc2C)c(=O)n4C)cnc1Cl"
experimental_target = "PKB Ser473 phosphorylation in Rat1-myr-HA-p110 alpha cells"
quantity_kind = "pIC50"
value_reported = 7.47


(P) Cc1nn(C)cc1-n1c(=O)n(C)c2cnc3ccc(-c4cncc(N(C)C5CCC5)c4)cc3c21
(Q) CCN1C(=O)OCc2ncc(-c3ccc4ncc5c(c4c3)n(-c3cn(C)nc3C)c(=O)n5C)cc21
Exercise: Please tell me which of the two, P or Q , has the higher reported pIC50 value. Refer to your chosen item by its label in the answer.
Key: P
(P: 8.05, Q: 7.74)

---

EXPERIMENTAL_TARGET: PI3K alpha (Homo sapiens)
Construct: p85(iSH2) fusion partner (see partner chain) (N); His tag (C); Tn5 (Trichoplusia ni) or TiniPro insect cells
Sequence (P42336 with tags, fused parts or gaps limits assumed): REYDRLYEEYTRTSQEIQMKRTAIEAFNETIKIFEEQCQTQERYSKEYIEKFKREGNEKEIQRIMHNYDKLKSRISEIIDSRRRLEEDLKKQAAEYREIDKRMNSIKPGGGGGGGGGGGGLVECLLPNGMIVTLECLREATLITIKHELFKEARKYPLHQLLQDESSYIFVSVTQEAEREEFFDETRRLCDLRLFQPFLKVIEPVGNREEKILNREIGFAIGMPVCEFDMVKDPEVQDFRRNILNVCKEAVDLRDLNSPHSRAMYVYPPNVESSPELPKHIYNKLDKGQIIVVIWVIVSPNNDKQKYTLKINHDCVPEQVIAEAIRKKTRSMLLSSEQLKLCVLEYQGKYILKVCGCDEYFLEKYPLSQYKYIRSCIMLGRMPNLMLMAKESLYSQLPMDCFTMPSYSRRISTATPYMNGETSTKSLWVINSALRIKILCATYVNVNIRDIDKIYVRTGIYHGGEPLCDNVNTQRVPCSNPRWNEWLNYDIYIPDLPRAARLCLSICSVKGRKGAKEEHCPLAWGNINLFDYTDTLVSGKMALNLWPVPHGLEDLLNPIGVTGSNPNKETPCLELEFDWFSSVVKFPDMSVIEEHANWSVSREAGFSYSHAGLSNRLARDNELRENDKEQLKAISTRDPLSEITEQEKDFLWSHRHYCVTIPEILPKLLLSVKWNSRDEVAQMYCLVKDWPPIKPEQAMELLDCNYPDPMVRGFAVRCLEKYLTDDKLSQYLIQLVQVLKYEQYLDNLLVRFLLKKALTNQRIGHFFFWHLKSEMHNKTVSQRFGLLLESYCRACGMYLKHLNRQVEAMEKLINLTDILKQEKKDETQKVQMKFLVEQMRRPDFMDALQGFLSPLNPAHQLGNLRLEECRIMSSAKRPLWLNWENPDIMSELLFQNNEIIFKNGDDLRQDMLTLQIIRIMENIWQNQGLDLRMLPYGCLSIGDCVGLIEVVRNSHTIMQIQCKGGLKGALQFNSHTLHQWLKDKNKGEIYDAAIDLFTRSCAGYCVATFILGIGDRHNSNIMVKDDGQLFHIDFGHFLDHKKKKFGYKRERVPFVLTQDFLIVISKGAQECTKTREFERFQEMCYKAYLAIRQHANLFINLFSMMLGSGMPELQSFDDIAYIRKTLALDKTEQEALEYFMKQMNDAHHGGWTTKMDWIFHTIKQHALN
METHOD_DESCRIPTION: PI3K alpha kinase assay (Kinase-Glo luminescence)
QUANTITY_KIND: IC50 (nM)

A selection of reference data follows.
[[record]]
smiles = "CCOCc1cc(-c2ccc3ncc4c(c3c2)n(-c2cn(C(C)C)nc2C)c(=O)n4C)cnc1N"
value_reported = 10

[[record]]
smiles = "CCOc1cc(-c2ccc3ncc4c(c3c2)n(-c2cn(C)nc2C)c(=O)n4C)cnc1C"
value_reported = 6

[[record]]
smiles = "Cc1nn(C)c(C)c1-n1c(=O)n(C)c2cnc3ccc(-c4ccccc4)cc3c21"
value_reported = 250

[[record]]
smiles = "COc1ccc(-c2ccc3ncc4c(c3c2)n(-c2cc(C)nn2C)c(=O)n4C)cn1"
value_reported = 30

[[record]]
smiles = "CCn1cc(-n2c(=O)n(C)c3cnc4ccc(-c5cnc(COC)c(OC)c5)cc4c32)c(C)n1"
value_reported = 48

[[record]]
smiles = "Cc1cnn(C)c1-n1c(=O)n(C)c2cnc3ccc(-c4cncc(OC(C)C)c4)cc3c21"
value_reported = 236


(a) CNc1ncc(-c2ccc3ncc4c(c3c2)n(-c2c(C)noc2C)c(=O)n4C)cc1Cl
(b) COc1ccc(-c2ccc3ncc4c(c3n2)n(-c2cn(C)nc2C)c(=O)n4C)cc1OC
(c) CCOc1cc(-c2ccc3ncc4c(c3c2)n(-c2cn(C)nc2C)c(=O)n4C)cnc1CC
(d) Cc1nn(C)c(C)c1-n1c(=O)n(C)c2cnc3ccc(-c4cnc(Cl)c(N)c4)cc3c21
(e) CN(C)c1ccc(-c2ccc3ncc4c(c3c2)n(-c2ccnn2C)c(=O)n4C)cn1
Exercise: Provide the items ranked by increasing IC50. Returns: the labels listed in the requested order.
Key: b, c, d, a, e

(a) CNC(=O)Cc1cncc(-c2ccc3ncc4c(c3c2)n(-c2cn(C)nc2C)c(=O)n4C)c1
(b) Cc1nn(C)cc1-n1c(=O)n(C)c2cnc3ccc(-c4cncc(C(C)(C)O)c4)cc3c21
(c) CCN(C)c1cc(-c2ccc3ncc4c(c3c2)n(-c2cn(C)nc2C)c(=O)n4C)cnc1C
Exercise: // ranking: key=IC50, reverse=True Returns: the labels listed in the requested order.
Key: a, b, c

(A) COCc1ncc(-c2ccc3ncc4c(c3c2)n(-c2cn(C)nc2C)c(=O)n4C)cc1OC(C)C
(B) Cc1nn(C)c(C)c1-n1c(=O)n(C)c2cnc3ccc(-c4ccc(N(C)C)nc4)cc3c21
Exercise: Please tell me which of the two, A or B , has the higher reported IC50 value. Refer to your chosen item by its label in the answer.
Key: B
(B: 99 nM, A: 14 nM)

(A) CNc1ncc(-c2ccc3ncc4c(c3c2)n(-c2cn(C)nc2C)c(=O)n4C)cc1F
(B) CCn1cc(-n2c(=O)n(C)c3cnc4ccc(-c5ccc(NC)nc5)cc4c32)c(C)n1
Exercise: Returns: the label, A or B , whose recorded IC50 is the lower number. Refer to your chosen item by its label in the answer.
Key: A
(A: 14 nM, B: 20 nM)
